# credit: PubChem BioAssay (NCI)

Tested on: SF-268 CNS
Assay: NCI-60 one-dose screen, 48 h
Details: 10 µM unless noted
Compounds without any hit were thinned out: in the full panel of roughly 83,000, 20% have a hit. Activity calls are given as the source filed them. Rule for the calls: active = growth percent below 10; inactive = the rest.
Classes to choose from: active, inactive

Task item: Hey, what did the test say about NC(=S)N/N=C(/c1cccs1)C1CC1 ?
Reply: inactive

Task item: Hey, what did the test say about O=C(O)Cn1ccc2ccccc21 ?
Reply: inactive

Task item: Hey, what did the test say about CC1CCN(Cc2ccc(NC(=O)c3cc4ccc5cccnc5c4[nH]3)cc2)CC1 ?
Reply: inactive

Task item: Hey, what did the test say about Cc1ccc2nc(CN(CCN(Cc3nc4ccc(C)cc4[nH]3)Cc3nc4ccc(C)cc4[nH]3)Cc3nc4ccc(C)cc4[nH]3)[nH]c2c1 ?
Reply: active

Task item: Hey, what did the test say about O=C(O)C1[S][Sb]([CH](C(=O)O)[CH](C(=O)O)[Sb]2[S]C(C(=O)O)C(C(=O)O)[S]2)[S]C1C(=O)O (configuration not stated) ?
Reply: inactive

Task item: Hey, what did the test say about C/C(CC(=O)NNc1ccc([N+](=O)[O-])cc1)=N\Nc1ccc([N+](=O)[O-])cc1 ?
Reply: inactive

Task item: Hey, what did the test say about COc1cc(C2CC(c3ccc(Nc4ccnc5cc(Cl)ccc45)cc3)=NN2c2ccccc2)cc(OC)c1OC (configuration not stated) ?
Reply: inactive

Task item: Hey, what did the test say about Nc1cccc(S(=O)(=O)c2cccc(N)c2)c1 ?
Reply: inactive

Task item: Hey, what did the test say about CN=C1C=C/C(=N/N=c2/ccn(O)cc2C)C=C1C ?
Reply: inactive

Task item: Hey, what did the test say about COc1ccc(/C(=C\c2ccc3c(c2)OCO3)C(=O)Nc2nc3ccccc3s2)cc1 ?
Reply: inactive

Task item: Hey, what did the test say about COc1cc(C)c2c(=O)c3c(oc2c1)C(=O)c1c(O)c(OC)cc(O)c1C3=O ?
Reply: inactive

Task item: Hey, what did the test say about O=C1OC(c2ccc(-c3ccccc3)cc2)=C/C1=C/c1c(Cl)cccc1Cl ?
Reply: inactive

Task item: Hey, what did the test say about O=C(C(=O)c1cccnc1)c1cccnc1 ?
Reply: inactive

Task item: Hey, what did the test say about CN1CCN(Cc2ccc(NC(=O)c3cncc(C#Cc4ccc(N)nc4)c3)cc2C(F)(F)F)CC1 ?
Reply: inactive

Task item: Hey, what did the test say about CCN(CC)Cc1cc(Nc2nc(NC3CCC(N(C)C)CC3)c3ccccc3n2)ccc1OC (configuration not stated) ?
Reply: inactive

Task item: Hey, what did the test say about C#CC[C@@H]1C[C@]2(C)[C@H]3CC[C@@H]4[C@H]5C(C(=C)C)CC[C@]5(C(=O)NCCCCCCCCN)CC[C@@]4(C)[C@]3(C)CC[C@H]2C(C)(C)[C@H]1OC(C)=O (some centres not stated) ?
Reply: inactive

Task item: Hey, what did the test say about CC(=O)c1ccc(Nc2nc(Cl)nc(Oc3c(Cl)cccc3Cl)n2)cc1 ?
Reply: inactive

Task item: Hey, what did the test say about Fc1ccc(-c2nnc(N3CCOCC3)c3ccccc23)cc1 ?
Reply: inactive

Task item: Hey, what did the test say about Nc1c(C(=O)Nc2cccc(Cl)c2)sc2ncc(Br)cc12 ?
Reply: inactive

Task item: Hey, what did the test say about CCOCC(O)(c1ccc(Cl)cc1)c1ccc(Cl)cc1 ?
Reply: inactive

Task item: Hey, what did the test say about COc1ccc(Nc2ncccc2C(=O)NCc2cn(Cc3cc(OC)cc(OC)c3)nn2)cc1 ?
Reply: inactive

Task item: Hey, what did the test say about COc1ccc(/C=C2\Cc3c(Br)cccc3C2=O)c(OC)c1 ?
Reply: inactive

Task item: Hey, what did the test say about Cc1ccc(N=CNN=C(N)N)cc1 ?
Reply: inactive

Task item: Hey, what did the test say about COc1cccc(Cn2c(-c3nonc3NC(C)=O)nc3ccccc32)c1 ?
Reply: inactive

Task item: Hey, what did the test say about COc1cc2nccc(Oc3ccc(NC(=O)C4(C(=O)Nc5ccc(F)cc5)CC4)cc3)c2cc1Oc1ccc(N)cn1 ?
Reply: inactive

Task item: Hey, what did the test say about CCCCC(CCc1ccccn1)C(=O)c1ccccc1 (configuration not stated) ?
Reply: inactive

Task item: Hey, what did the test say about CC(COC(=O)c1ccccc1)N1CC2CCC(C1)O2 (configuration not stated) ?
Reply: inactive

Task item: Hey, what did the test say about Clc1ccc(Nc2ncnc3c2sc2ncccc23)cc1 ?
Reply: inactive

Task item: Hey, what did the test say about O=C(O)c1ccccc1N=Cc1ccccc1 ?
Reply: inactive

Task item: Hey, what did the test say about C=CCOc1c(Br)cc(Br)cc1Br ?
Reply: inactive

Task item: Hey, what did the test say about COc1ccc(-c2nc(-c3ccccc3OCc3ccccc3OC)nc(C)c2C(C)=O)cc1 ?
Reply: inactive

Task item: Hey, what did the test say about c1ccc(C(CC2=NCCCN2)c2ccccc2)cc1 ?
Reply: inactive

Task item: Hey, what did the test say about O=C(Nc1ccc(Oc2ccc(NC(=O)Nc3ccccc3Cl)cc2)cc1)Nc1ccccc1Cl ?
Reply: inactive

Task item: Hey, what did the test say about CCCCNCC(O)c1cc(-c2ccc(C(F)(F)F)cc2)nc(-c2ccc(C(F)(F)F)cc2)c1 (configuration not stated) ?
Reply: active

Task item: Hey, what did the test say about N#Cc1c(N)c(C(=O)c2ccc3c(c2)OCCO3)n2c1CCCC2 ?
Reply: inactive

Task item: Hey, what did the test say about O=C(Nc1ccc(Oc2ccc(Nc3nc4ccccc4s3)cc2)cc1)Nc1ccc(Cl)c(C(F)(F)F)c1 ?
Reply: inactive

Task item: Hey, what did the test say about COc1cc(/C=C/C(=O)c2c(C)nc3ccccc3c2C)ccc1OCCCOc1cc2c(cc1OC)C(=O)N1CCC[C@H]1C=N2 ?
Reply: active

Task item: Hey, what did the test say about CSC1=NC(=Nc2c(C)cccc2C)C2(CCC(C(C)(C)C)CC2)N1c1ccc(Cl)cc1 (configuration not stated) ?
Reply: inactive

Task item: Hey, what did the test say about COc1cc(C)cc2oc3oc(=O)c(-c4csc(-c5cc6ccccc6oc5=O)n4)cc3c(=O)c12 ?
Reply: inactive

Task item: Hey, what did the test say about O=C1/C(=C\c2cccn2Cc2ccc(F)cc2)c2ccccc2N1c1c(Cl)cccc1Cl ?
Reply: inactive

Task item: Hey, what did the test say about CCOC(=O)NNc1cccc(Cl)c1 ?
Reply: inactive

Task item: Hey, what did the test say about N=C(N)c1ccc(-c2ccc(-c3cc(Cl)cc(Cl)c3)o2)nc1 ?
Reply: active
